Reported Km is given for each of the following molecules.
- System: LPESG (Abz-LPESGK(Dnp)-CONH2)
- assayRemarks: In vitro sortase kinetics HPLC assay, LPESG substrate
- Assay type: biochemical
- protocolConditions: substrate 4S (LPESG); read-out: Km, LxExG

Below, 3 molecules whose answers are already recorded.
eSrtA(4S-5): 5mut + N98D A104V A118T F122A K134R I182V (protein) QAKPQIPKDKSKVAGYIEIPDADIKEPVYPGPATREQLDRGVSFVEENESLDDQNISITGHTAIDRPNYQFTNLRAAKKGSMVYFKVGNETRKYKMTSIRNVKPTAVEVLDEQKGKDKQLTLVTCDDYNEETGVWETRKIFVATEVK	76 µM
4S.6A: 5mut + N98D A104V A118S F122A K134G I182V E189V (protein) QAKPQIPKDKSKVAGYIEIPDADIKEPVYPGPATREQLDRGVSFVEENESLDDQNISISGHTAIDRPNYQFTNLGAAKKGSMVYFKVGNETRKYKMTSIRNVKPTAVEVLDEQKGKDKQLTLVTCDDYNVETGVWETRKIFVATEVK	102 µM
eSrtA (protein) QAKPQIPKDKSKVAGYIEIPDADIKEPVYPGPATREQLNRGVSFAEENESLDDQNISIAGHTFIDRPNYQFTNLKAAKKGSMVYFKVGNETRKYKMTSIRNVKPTAVEVLDEQKGKDKQLTLITCDDYNEETGVWETRKIFVATEVK	672 µM

Shifting focus to the molecule that follows.
Entry 4S.6B: 5mut + N98D A104V A118S F122A K134P I182V E189P (protein) QAKPQIPKDKSKVAGYIEIPDADIKEPVYPGPATREQLDRGVSFVEENESLDDQNISISGHTAIDRPNYQFTNLPAAKKGSMVYFKVGNETRKYKMTSIRNVKPTAVEVLDEQKGKDKQLTLVTCDDYNPETGVWETRKIFVATEVK ; Km = 312 µM
